# System: Met-ase (Rattus norvegicus)
# Construct: endogenous in cells; host or cells: rat RNK-16 LGL leukemia cells, cytolytic granules, HPLC fraction 104
# Sequence (Q03238 21-258 limits assumed): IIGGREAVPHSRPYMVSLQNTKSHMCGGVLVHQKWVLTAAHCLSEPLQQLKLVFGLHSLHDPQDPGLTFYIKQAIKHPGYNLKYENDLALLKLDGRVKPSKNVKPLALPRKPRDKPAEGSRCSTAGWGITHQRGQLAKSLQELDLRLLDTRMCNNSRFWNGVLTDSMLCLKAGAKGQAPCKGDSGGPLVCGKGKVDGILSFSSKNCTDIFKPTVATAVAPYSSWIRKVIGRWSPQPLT
# Procedure Summary: Initial rates of peptide thiobenzyl ester substrate hydrolysis by HPLC-purified Met-ase (HPLC fraction 104)
# Type: biochemical
# Run Parameters: 10 μl enzyme solution (HPLC fraction 104); [S] 100-133 μM; pH 7.5, 25° C.
Starred links: 1 amine or outer side, 2 acyl side, 3 side chain; linkers in the order of their positions; H or OH if unused. Non-standard residues stand in square brackets, D forms with d. Residues, ends and D or L forms follow the SMILES beside them. *: point of attachment. Suc = O=C(CCC(=O)[*:2])[*:1]; Nle = CCCC[C@H](N)C(=O)O; Boc = CC(C)(C)OC(=O)*; SBn = c1ccc(CS*)cc1
Endpoint: Initial Rates, Met-ase
The number alone won't do; follow it with the unit.

Can you share its Initial Rates, Met-ase? I mean this compound: C[C@H](NC(=O)OC(C)(C)C)C(=O)N[C@@H](C)C(=O)N[C@@H](CC(=O)O)C(=O)SCc1ccccc1 [Boc--Ala--Ala--Asp--SBz1, Boc-Ala-Ala-Asp-SBzl] (Boc-Ala-Ala-Asp-SBn) 0 nM/s

Can you share its Initial Rates, Met-ase? I mean this compound: C[C@H](NC(=O)OC(C)(C)C)C(=O)N[C@@H](C)C(=O)N[C@@H](CO)C(=O)SCc1ccccc1 [Boc--Ala--Ala--Ser--SBz1] (Boc-Ala-Ala-Ser-SBn) 0 nM/s

Can you share its Initial Rates, Met-ase? I mean this compound: CC(C)C[C@H](NC(=O)[C@H](Cc1ccccc1)NC(=O)CCC(=O)O)C(=O)N[C@@H](Cc1ccccc1)C(=O)SCc1ccccc1 [Suc--Phe--Leu--Phe--SBz1, Suc-Phe-Leu-Phe-SBzl] (Suc-Phe-Leu-Phe-SBn) 0 nM/s

Can you share its Initial Rates, Met-ase? I mean this compound: CCCC[C@H](NC(=O)[C@H](C)NC(=O)[C@H](C)NC(=O)OC(C)(C)C)C(=O)SCc1ccccc1 [Boc--Ala--Ala--Nle--SBz1] (Boc-Ala-Ala-[Nle]-SBn) 3.9 nM/s

Can you share its Initial Rates, Met-ase? I mean this compound: "N=C(N)NCCC[C@H](NC(=O)OCc1ccccc1)C(=O)SCc1ccccc1" 0 nM/s

Can you share its Initial Rates, Met-ase? I mean this compound: CSCC[C@H](NC(=O)[C@H](C)NC(=O)[C@H](C)NC(=O)OC(C)(C)C)C(=O)SCc1ccccc1 [Boc--Ala--Ala--Met--SBz1, Boc-Ala-Ala-Met-S Benzyl (Bzl)] (Boc-Ala-Ala-Met-SBn) 4.2 nM/s

Can you share its Initial Rates, Met-ase? I mean this compound: CC(C)C[C@H](NC(=O)[C@H](C)NC(=O)[C@H](C)NC(=O)OC(C)(C)C)C(=O)SCc1ccccc1 [Boc--Ala--Ala--Leu--SBz1] (Boc-Ala-Ala-Leu-SBn) 2.9 nM/s
